Here the recorded log10(response) is given for each entry.
system: T1, PP2A-B55, Q7ZX64
T1 chain: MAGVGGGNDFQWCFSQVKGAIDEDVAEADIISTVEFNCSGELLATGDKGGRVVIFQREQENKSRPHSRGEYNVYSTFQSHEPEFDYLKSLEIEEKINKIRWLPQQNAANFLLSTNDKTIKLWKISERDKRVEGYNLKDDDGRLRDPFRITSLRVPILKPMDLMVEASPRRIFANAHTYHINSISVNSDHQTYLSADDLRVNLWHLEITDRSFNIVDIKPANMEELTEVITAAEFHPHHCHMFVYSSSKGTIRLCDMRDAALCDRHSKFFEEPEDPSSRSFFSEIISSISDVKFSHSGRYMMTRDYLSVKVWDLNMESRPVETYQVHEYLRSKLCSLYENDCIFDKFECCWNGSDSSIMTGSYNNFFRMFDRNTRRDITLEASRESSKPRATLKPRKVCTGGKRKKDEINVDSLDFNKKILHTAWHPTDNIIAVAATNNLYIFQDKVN
procedure text: His pull-down, western blot quantification
assay conditions: chain shown with the change; 20 ng His-Arpp19; panel titled Phospho-Arpp19; parent: est. 0.98; read off a plot
quantity kind: log10(response) (log10 of the value in AU)

>  <binder>
6His-Xenopus Arpp19 (isoform 1), wild type Y68A (protein) MSGENQETKAQEESSALEQKEIDDKVVSPEKSEEIKLKARYPNLGPKPGGSDFLRKRLQKGVSKKQKAFDSGDYNMAKAKMKNKQLPTAASDKTEVTGDHIPTPQDLPQRKPSLVASKLAG

>  <quantity kind>
log10(response)

>  <result value>
-0.80

$$$$
>  <binder>
6His-Xenopus Arpp19 (isoform 1), wild type K67A (protein) MSGENQETKAQEESSALEQKEIDDKVVSPEKSEEIKLKARYPNLGPKPGGSDFLRKRLQKGVSKKQAYFDSGDYNMAKAKMKNKQLPTAASDKTEVTGDHIPTPQDLPQRKPSLVASKLAG

>  <quantity kind>
log10(response)

>  <result value>
-0.28

$$$$
>  <binder>
6His-Xenopus Arpp19 (isoform 1), wild type G72A (protein) MSGENQETKAQEESSALEQKEIDDKVVSPEKSEEIKLKARYPNLGPKPGGSDFLRKRLQKGVSKKQKYFDSADYNMAKAKMKNKQLPTAASDKTEVTGDHIPTPQDLPQRKPSLVASKLAG

>  <quantity kind>
log10(response)

>  <result value>
0.15

$$$$
>  <binder>
6His-Xenopus Arpp19 (isoform 1), wild type D73A (protein) MSGENQETKAQEESSALEQKEIDDKVVSPEKSEEIKLKARYPNLGPKPGGSDFLRKRLQKGVSKKQKYFDSGAYNMAKAKMKNKQLPTAASDKTEVTGDHIPTPQDLPQRKPSLVASKLAG

>  <quantity kind>
log10(response)

>  <result value>
-0.80

$$$$
>  <binder>
6His-Xenopus Arpp19 (isoform 1), wild type Y74A (protein) MSGENQETKAQEESSALEQKEIDDKVVSPEKSEEIKLKARYPNLGPKPGGSDFLRKRLQKGVSKKQKYFDSGDANMAKAKMKNKQLPTAASDKTEVTGDHIPTPQDLPQRKPSLVASKLAG

>  <quantity kind>
log10(response)

>  <result value>
-1.05

$$$$
>  <binder>
6His-Xenopus Arpp19 (isoform 1), wild type Q66A (protein) MSGENQETKAQEESSALEQKEIDDKVVSPEKSEEIKLKARYPNLGPKPGGSDFLRKRLQKGVSKKAKYFDSGDYNMAKAKMKNKQLPTAASDKTEVTGDHIPTPQDLPQRKPSLVASKLAG

>  <quantity kind>
log10(response)

>  <result value>
-0.07

$$$$
>  <binder>
6His-Xenopus Arpp19 (isoform 1), wild type S71T (protein) MSGENQETKAQEESSALEQKEIDDKVVSPEKSEEIKLKARYPNLGPKPGGSDFLRKRLQKGVSKKQKYFDTGDYNMAKAKMKNKQLPTAASDKTEVTGDHIPTPQDLPQRKPSLVASKLAG

>  <quantity kind>
log10(response)

>  <result value>
-0.68

$$$$
>  <binder>
6His-Xenopus Arpp19 (isoform 1), wild type F69A (protein) MSGENQETKAQEESSALEQKEIDDKVVSPEKSEEIKLKARYPNLGPKPGGSDFLRKRLQKGVSKKQKYADSGDYNMAKAKMKNKQLPTAASDKTEVTGDHIPTPQDLPQRKPSLVASKLAG

>  <quantity kind>
log10(response)

>  <result value>
-1.40

$$$$
>  <binder>
6His-Xenopus Arpp19 (isoform 1), wild type D70A (protein) MSGENQETKAQEESSALEQKEIDDKVVSPEKSEEIKLKARYPNLGPKPGGSDFLRKRLQKGVSKKQKYFASGDYNMAKAKMKNKQLPTAASDKTEVTGDHIPTPQDLPQRKPSLVASKLAG

>  <quantity kind>
log10(response)

>  <result value>
-0.85

$$$$
